Data credit: ChEMBL document CHEMBL5291721

The following are reported AC50 results, target or system Estrogen receptor beta (Homo sapiens, UniProt Q92731). Note: assay procedure not described here.

{"columns": ["COMPOUND", "AC50"],
 "data": [
  ["CCCNC(=O)NS(=O)(=O)c1ccc(Cl)cc1 [CHLORPROPAMIDE]", "> 30 µM"],
  ["O=c1c(O)c(-c2ccc(O)c(O)c2)oc2cc(O)cc(O)c12", "> 30 µM"],
  ["CC(CN1c2ccccc2Sc2ccccc21)N(C)C (stereo not drawn)", "> 30 µM"]
]}

====

# TGT: Voltage-dependent L-type calcium channel subunit alpha-1C (Rattus norvegicus, UniProt P22002)
# Sequence (P22002 whole entry): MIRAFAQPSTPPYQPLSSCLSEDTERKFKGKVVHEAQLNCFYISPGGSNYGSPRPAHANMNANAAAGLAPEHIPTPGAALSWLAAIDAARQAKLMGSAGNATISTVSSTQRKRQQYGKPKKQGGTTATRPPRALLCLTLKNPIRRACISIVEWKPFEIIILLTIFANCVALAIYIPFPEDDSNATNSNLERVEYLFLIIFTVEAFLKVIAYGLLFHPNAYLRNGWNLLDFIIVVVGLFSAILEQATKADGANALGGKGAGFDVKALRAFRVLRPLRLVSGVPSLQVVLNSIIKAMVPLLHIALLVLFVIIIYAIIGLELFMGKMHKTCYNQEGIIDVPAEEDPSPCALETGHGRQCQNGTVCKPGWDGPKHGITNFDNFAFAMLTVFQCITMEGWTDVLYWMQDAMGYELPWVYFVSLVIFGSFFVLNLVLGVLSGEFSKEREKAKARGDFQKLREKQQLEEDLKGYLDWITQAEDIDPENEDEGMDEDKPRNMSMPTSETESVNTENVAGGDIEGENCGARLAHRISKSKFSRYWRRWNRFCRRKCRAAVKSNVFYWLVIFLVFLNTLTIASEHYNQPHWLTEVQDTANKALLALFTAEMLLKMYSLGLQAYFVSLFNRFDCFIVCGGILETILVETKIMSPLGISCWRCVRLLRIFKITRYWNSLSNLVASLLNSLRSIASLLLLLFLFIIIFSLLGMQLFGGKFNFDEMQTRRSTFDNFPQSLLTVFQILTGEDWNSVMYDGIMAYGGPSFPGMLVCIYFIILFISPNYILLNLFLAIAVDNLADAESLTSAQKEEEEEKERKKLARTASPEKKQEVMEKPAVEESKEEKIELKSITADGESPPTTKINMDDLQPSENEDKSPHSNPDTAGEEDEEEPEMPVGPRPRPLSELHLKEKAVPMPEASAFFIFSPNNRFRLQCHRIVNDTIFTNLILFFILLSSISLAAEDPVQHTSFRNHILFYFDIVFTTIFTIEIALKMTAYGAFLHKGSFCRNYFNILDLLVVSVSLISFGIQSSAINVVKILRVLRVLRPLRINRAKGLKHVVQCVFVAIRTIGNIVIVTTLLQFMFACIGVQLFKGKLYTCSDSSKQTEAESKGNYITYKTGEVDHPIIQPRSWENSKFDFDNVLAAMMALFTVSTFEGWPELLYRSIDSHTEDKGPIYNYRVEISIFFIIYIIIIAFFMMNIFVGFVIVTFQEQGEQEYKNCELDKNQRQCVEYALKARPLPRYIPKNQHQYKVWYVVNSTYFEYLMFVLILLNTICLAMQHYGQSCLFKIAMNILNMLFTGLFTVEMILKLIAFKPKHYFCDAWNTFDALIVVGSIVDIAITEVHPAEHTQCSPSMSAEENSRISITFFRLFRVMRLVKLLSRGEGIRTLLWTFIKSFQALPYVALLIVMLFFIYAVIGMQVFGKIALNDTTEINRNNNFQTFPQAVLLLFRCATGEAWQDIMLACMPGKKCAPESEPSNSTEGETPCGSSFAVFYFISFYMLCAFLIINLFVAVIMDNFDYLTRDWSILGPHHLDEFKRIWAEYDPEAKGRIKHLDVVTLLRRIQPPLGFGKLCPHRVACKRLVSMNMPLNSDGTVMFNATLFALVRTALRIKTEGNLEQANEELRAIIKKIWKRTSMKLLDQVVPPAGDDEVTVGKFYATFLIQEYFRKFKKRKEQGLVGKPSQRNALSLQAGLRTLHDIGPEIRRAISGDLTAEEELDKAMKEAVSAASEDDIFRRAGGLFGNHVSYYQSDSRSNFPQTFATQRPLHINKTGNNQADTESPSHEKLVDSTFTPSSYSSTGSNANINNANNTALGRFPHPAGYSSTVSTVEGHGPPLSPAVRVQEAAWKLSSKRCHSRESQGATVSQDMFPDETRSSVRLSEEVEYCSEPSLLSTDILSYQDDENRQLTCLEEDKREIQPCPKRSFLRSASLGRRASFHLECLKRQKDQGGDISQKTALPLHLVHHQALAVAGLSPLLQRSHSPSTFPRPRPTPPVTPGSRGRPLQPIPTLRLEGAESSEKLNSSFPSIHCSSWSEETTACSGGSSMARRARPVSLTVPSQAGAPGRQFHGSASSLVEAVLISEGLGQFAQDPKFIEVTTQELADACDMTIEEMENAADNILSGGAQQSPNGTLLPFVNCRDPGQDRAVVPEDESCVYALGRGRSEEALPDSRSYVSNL
# Assay type: functional
MEASURED METRIC: AC50

{"columns": ["MOLECULE", "MEASURED METRIC", "VALUE REPORTED"],
 "data": [
  ["Cc1nc(Nc2ncc(C(=O)Nc3c(C)cccc3Cl)s2)cc(N2CCN(CCO)CC2)n1", "AC50", "> 10 µM"],
  ["NS(=O)(=O)c1cc2c(cc1Cl)N=C(CSCc1ccccc1)NS2(=O)=O [BENZTHIAZIDE]", "AC50", "> 10 µM"],
  ["O=C(/C=C/c1cccc(S(=O)(=O)Nc2ccccc2)c1)NO", "AC50", "> 10 µM"],
  ["CN[C@]1(c2ccccc2Cl)CCCCC1=O", "AC50", "> 30 µM"],
  ["Cc1ccc(C)c(OCCCC(C)(C)C(=O)O)c1", "AC50", "> 10 µM"]
]}

====

Listed here are molecules together with their documented AC50.
# TGT: Glutamate receptor ionotropic, NMDA 1 (Rattus norvegicus, UniProt P35439)
MEASURED METRIC: AC50

{"columns": ["MOLECULE", "VALUE REPORTED"],
 "data": [
  ["COC(=O)C1=C(C)NC(C)=C(C(=O)OCCN2CCN(C(c3ccccc3)c3ccccc3)CC2)C1c1cccc([N+](=O)[O-])c1 (stereo not drawn)", "> 30 µM"],
  ["CCN1CC(CCN2CCOCC2)C(c2ccccc2)(c2ccccc2)C1=O (stereo not drawn)", "> 30 µM"],
  ["CC(C)C[C@H](NC(=O)[C@@H](O)[C@H](N)Cc1ccccc1)C(=O)O", "> 30 µM"],
  ["CN(C)C/C=C/C(=O)Nc1cc2c(Nc3ccc(F)c(Cl)c3)ncnc2cc1O[C@H]1CCOC1", "> 30 µM"],
  ["CCC1(c2ccc(N)cc2)CCC(=O)NC1=O (stereo not drawn) [AMINOGLUTETHIMIDE]", "> 30 µM"],
  ["CN(Cc1cnc2nc(N)nc(N)c2n1)c1ccc(C(=O)N[C@@H](CCC(=O)O)C(=O)O)cc1 [METHOTREXATE]", "> 10 µM"],
  ["CCCN1CC(NS(=O)(=O)N(CC)CC)CC2Cc3c(O)cccc3CC21 (stereo not drawn) [QUINAGOLIDE]", "> 30 µM"],
  ["CC(C)N(CCCCOCC(=O)O)c1cnc(-c2ccccc2)c(-c2ccccc2)n1", "> 30 µM"]
]}

====

# TGT: Amine oxidase [flavin-containing] A (Homo sapiens, UniProt P21397)
# Sequence (P21397 whole entry): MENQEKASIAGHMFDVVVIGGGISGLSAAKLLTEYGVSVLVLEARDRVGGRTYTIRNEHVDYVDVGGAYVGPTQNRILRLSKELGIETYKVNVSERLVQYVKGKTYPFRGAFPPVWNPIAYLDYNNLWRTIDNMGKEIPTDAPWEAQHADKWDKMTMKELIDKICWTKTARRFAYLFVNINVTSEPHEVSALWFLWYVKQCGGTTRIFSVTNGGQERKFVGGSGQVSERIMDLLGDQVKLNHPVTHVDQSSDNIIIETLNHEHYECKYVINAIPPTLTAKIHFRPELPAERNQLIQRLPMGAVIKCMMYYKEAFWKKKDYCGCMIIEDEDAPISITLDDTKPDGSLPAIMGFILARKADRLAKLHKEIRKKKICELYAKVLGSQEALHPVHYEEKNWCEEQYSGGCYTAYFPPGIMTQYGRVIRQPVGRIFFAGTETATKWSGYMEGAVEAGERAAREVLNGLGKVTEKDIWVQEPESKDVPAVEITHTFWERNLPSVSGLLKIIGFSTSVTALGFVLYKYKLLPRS
# Type: functional
MEASURED METRIC: AC50

{"columns": ["COMPOUND", "TGT", "MEASURED METRIC", "VALUE REPORTED"],
 "data": [
  ["CC(C)[C@H](N)C(=O)OCCOCn1cnc2c(=O)[nH]c(N)nc21", "Amine oxidase [flavin-containing] A (Homo sapiens, UniProt P21397)", "AC50", "> 10 µM"],
  ["COc1ccc(C2C(=O)c3ccccc3C2=O)cc1", "Amine oxidase [flavin-containing] A (Homo sapiens, UniProt P21397)", "AC50", "91 µM"],
  ["CC(C)(O/N=C(\\C(=O)N[C@@H]1C(=O)N2C(C(=O)[O-])=C(C[n+]3ccccc3)CS[C@H]12)c1csc(N)n1)C(=O)O", "Amine oxidase [flavin-containing] A (Homo sapiens, UniProt P21397)", "AC50", "> 300 µM"],
  ["C[N+](C)(C)CCOP(=O)(O)OP(=O)([O-])OC[C@H]1O[C@@H](n2ccc(N)nc2=O)[C@H](O)[C@@H]1O", "Amine oxidase [flavin-containing] A (Homo sapiens, UniProt P21397)", "AC50", "> 30 µM"],
  ["CCC(=O)O[C@]1(C(=O)CCl)[C@@H](C)C[C@H]2[C@@H]3CCC4=CC(=O)C=C[C@]4(C)[C@@]3(F)[C@@H](O)C[C@@]21C [CLOBETASOL PROPIONATE]", "Amine oxidase [flavin-containing] A (Homo sapiens, UniProt P21397)", "AC50", "> 30 µM"],
  ["CCOC(=O)C(C)(C)Oc1ccc(Cl)cc1 [CLOFIBRATE]", "Amine oxidase [flavin-containing] A (Homo sapiens, UniProt P21397)", "AC50", "> 10 µM"],
  ["NS(=O)(=O)c1cc2c(cc1Cl)N=C(CSCc1ccccc1)NS2(=O)=O [BENZTHIAZIDE]", "Amine oxidase [flavin-containing] A (Homo sapiens, UniProt P21397)", "AC50", "> 30 µM"],
  ["COc1cc(C(=O)NC2CCCNC2)cc(OC)c1OC (stereo unspecified) [TROXIPIDE]", "Amine oxidase [flavin-containing] A (Homo sapiens, UniProt P21397)", "AC50", "> 30 µM"],
  ["C[N+](C)(C)CCOP(=O)([O-])OC[C@H](O)CO", "Amine oxidase [flavin-containing] A (Homo sapiens, UniProt P21397)", "AC50", "> 30 µM"],
  ["CNCCc1ccc(OC(=O)C(C)C)c(OC(=O)C(C)C)c1", "Amine oxidase [flavin-containing] A (Homo sapiens, UniProt P21397)", "AC50", "> 30 µM"],
  ["CCC(NC(C)C)C(O)c1ccc(O)c2[nH]c(=O)ccc12 (stereo unspecified)", "Amine oxidase [flavin-containing] A (Homo sapiens, UniProt P21397)", "AC50", "> 30 µM"],
  ["C[N+]1(C)CCC(=C(c2ccccc2)c2ccccc2)CC1", "Amine oxidase [flavin-containing] A (Homo sapiens, UniProt P21397)", "AC50", "> 10 µM"],
  ["CCOC(=O)c1ncn2c1CN(C)C(=O)c1cc(F)ccc1-2", "Amine oxidase [flavin-containing] A (Homo sapiens, UniProt P21397)", "AC50", "> 30 µM"],
  ["CCOc1cc([C@@H](CS(C)(=O)=O)N2C(=O)c3cccc(NC(C)=O)c3C2=O)ccc1OC", "Amine oxidase [flavin-containing] A (Homo sapiens, UniProt P21397)", "AC50", "> 30 µM"],
  ["CNC[C@H](O)c1ccc(O)c(O)c1 [EPINEPHRINE]", "Amine oxidase [flavin-containing] A (Homo sapiens, UniProt P21397)", "AC50", "> 30 µM"],
  ["CCOC(=O)C1=C(C)NC(C)=C(C(=O)OCC)C1c1ccccc1/C=C/C(=O)OC(C)(C)C", "Amine oxidase [flavin-containing] A (Homo sapiens, UniProt P21397)", "AC50", "> 30 µM"],
  ["CC/C=C\\C/C=C\\C/C=C\\C/C=C\\C/C=C\\CCCC(=O)OCC", "Amine oxidase [flavin-containing] A (Homo sapiens, UniProt P21397)", "AC50", "> 30 µM"],
  ["CCCCCCCC(=O)CC[C@@H]1[C@@H](C/C=C\\CCCC(=O)OC(C)C)[C@@H](O)C[C@H]1O", "Amine oxidase [flavin-containing] A (Homo sapiens, UniProt P21397)", "AC50", "> 30 µM"],
  ["Cc1cc(=O)n(-c2ccccc2)n1C [ANTIPYRINE]", "Amine oxidase [flavin-containing] A (Homo sapiens, UniProt P21397)", "AC50", "> 10 µM"],
  ["Clc1ccc(Cn2c(CN3CCCC3)nc3ccccc32)cc1", "Amine oxidase [flavin-containing] A (Homo sapiens, UniProt P21397)", "AC50", "> 30 µM"],
  ["CC(C)c1cccc(C(C)C)c1O", "Amine oxidase [flavin-containing] A (Homo sapiens, UniProt P21397)", "AC50", "> 30 µM"],
  ["Cc1onc(-c2c(F)cccc2Cl)c1C(=O)N[C@@H]1C(=O)N2[C@@H]1SC(C)(C)[C@@H]2C(=O)O", "Amine oxidase [flavin-containing] A (Homo sapiens, UniProt P21397)", "AC50", "> 30 µM"],
  ["CC(C)C[C@H](NC(=O)[C@@H](O)[C@H](N)Cc1ccccc1)C(=O)O", "Amine oxidase [flavin-containing] A (Homo sapiens, UniProt P21397)", "AC50", "> 30 µM"],
  ["CC=CC1=C(C(=O)O)N2C(=O)[C@@H](NC(=O)[C@H](N)c3ccc(O)cc3)[C@H]2SC1", "Amine oxidase [flavin-containing] A (Homo sapiens, UniProt P21397)", "AC50", "> 30 µM"],
  ["CC[C@H](C)C(=O)O[C@H]1C[C@@H](C)C=C2C=C[C@H](C)[C@H](CC[C@@H]3C[C@@H](O)CC(=O)O3)[C@H]21", "Amine oxidase [flavin-containing] A (Homo sapiens, UniProt P21397)", "AC50", "> 10 µM"],
  ["CC(O)(CS(=O)(=O)c1ccc(F)cc1)C(=O)Nc1ccc(C#N)c(C(F)(F)F)c1 (stereo unspecified) [BICALUTAMIDE]", "Amine oxidase [flavin-containing] A (Homo sapiens, UniProt P21397)", "AC50", "> 10 µM"],
  ["C[C@]12CCC(=O)C[C@@H]1CC[C@@H]1[C@@H]2CC[C@]2(C)[C@@H](O)CC[C@@H]12", "Amine oxidase [flavin-containing] A (Homo sapiens, UniProt P21397)", "AC50", "> 30 µM"],
  ["CCCNC(=O)NS(=O)(=O)c1ccc(Cl)cc1 [CHLORPROPAMIDE]", "Amine oxidase [flavin-containing] A (Homo sapiens, UniProt P21397)", "AC50", "> 10 µM"],
  ["Fc1ccc([C@@H]2CCNC[C@H]2COc2ccc3c(c2)OCO3)cc1", "Amine oxidase [flavin-containing] A (Homo sapiens, UniProt P21397)", "AC50", "> 10 µM"],
  ["CC(CN1c2ccccc2Sc2ccccc21)N(C)C (stereo unspecified)", "Amine oxidase [flavin-containing] A (Homo sapiens, UniProt P21397)", "AC50", "> 10 µM"],
  ["CO/N=C(\\C(=O)N[C@@H]1C(=O)N2C(C(=O)O)=CCS[C@H]12)c1csc(N)n1", "Amine oxidase [flavin-containing] A (Homo sapiens, UniProt P21397)", "AC50", "> 30 µM"],
  ["O=C1Nc2ccc(Cl)cc2C(c2ccccc2Cl)=NC1O (stereo unspecified)", "Amine oxidase [flavin-containing] A (Homo sapiens, UniProt P21397)", "AC50", "> 10 µM"],
  ["CCOC(=O)c1ccc(N)cc1", "Amine oxidase [flavin-containing] A (Homo sapiens, UniProt P21397)", "AC50", "19 µM"],
  ["CC1=C(/C=C/C(C)=C/C=C/C(C)=C/CO)C(C)(C)CCC1", "Amine oxidase [flavin-containing] A (Homo sapiens, UniProt P21397)", "AC50", "> 10 µM"],
  ["Cc1nnc(SCC2=C(C(=O)O)N3C(=O)[C@@H](NC(=O)Cn4cnnn4)[C@H]3SC2)s1", "Amine oxidase [flavin-containing] A (Homo sapiens, UniProt P21397)", "AC50", "> 300 µM"],
  ["CCCCOc1ccc(C(=O)CCN2CCCCC2)cc1", "Amine oxidase [flavin-containing] A (Homo sapiens, UniProt P21397)", "AC50", "> 10 µM"]
]}
